# target.of.assay: NGAL (Neutrophil Gelatinase-Associated Lipocalin) (Homo sapiens, UniProt P80188 P80188:21-198)
# Sequence (P80188 21-198, one chain of several): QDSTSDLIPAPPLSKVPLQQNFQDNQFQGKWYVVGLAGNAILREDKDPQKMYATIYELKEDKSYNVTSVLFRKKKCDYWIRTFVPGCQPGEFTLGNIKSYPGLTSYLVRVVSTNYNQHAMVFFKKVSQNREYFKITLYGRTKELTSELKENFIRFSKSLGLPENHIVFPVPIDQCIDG
# protocol.text: flow; PBSMCT buffer; 1.28 nM in 10% human serum
# experimental.context: tags: His-Tag; R&D Systems
assay.endpoint: Kd (nM)
Write the value in nM as a bare number.

Query: What value of Kd has been reported for the following binder? NGAL-05 (ssDNA, immobilized on magnetic particles) DNA: GAATTCCGCCCTCGTCCCATCTCGGCTTGGTATGGCGGAGCTGGATAGTATAGTCGGAACACCAACCGAGAACGGAATTC
Reply: 0.92
